# target-or-test-system: Photosystem II protein D1 (Spinacia oleracea, UniProt P69560)
# protocol-notes: Inhibition of photosynthetic electron transport at the PSII level in intact chloroplasts from Spinacia oleracea (spinach) leaves assessed as inhibition of in vitro activity by Hill reaction assay
# stated-conditions: read-out: IC50
pIC50: −log10 of the molar value.
recorded-endpoint: pIC50

I: CCNc1nc2[nH]ncc2c(=O)s1
II: Cc1c(C(=O)O)c(C(=O)NC(C)(C)C)nn1-c1ccc(Cl)cc1
III: S=c1sc(Nc2cccc(Cl)c2)nc2[nH]ncc12
IV: Cc1c(C(=O)O)c(C(=O)NC(C)(C)C)nn1-c1ccccc1
V: O=c1sc(Nc2cccc(Cl)c2)nc2[nH]ncc12
In: Hey, quick one: sort these by pIC50, low to high? Give your ranking as a list of the labels in the requested order.
Out: IV, II, I, V, III
(IV: 2.12, II: 3.02, I: 3.47, V: 4.32, III: 4.82)

P: Cc1onc(C(=O)NC(C)(C)C)c1C(=O)O
Q: Cc1c(C(=O)O)c(C(=O)NC2CC2)nn1C
R: S=c1sc(Nc2ccc(Cl)cc2)nc2[nH]ncc12
S: Cc1c(C(=O)O)c(C(=O)NC(C)(C)C)nn1C
In: Order each entry by recorded pIC50, climbing from the minimum. # output: labels, in the requested order
Out: Q, S, P, R

I: Cc1c(C(=O)O)c(C(=O)NC2CC2)nn1-c1ccc(Cl)cc1
II: O=c1sc(Nc2ccc(Br)cc2)nc2[nH]ncc12
In: Endpoint returns whichever of I and II has the numerically higher pIC50. Select an item and report its label.
Out: II

a: Cc1onc(C(=O)NC2CC2)c1C(=O)O
b: O=c1sc(Nc2ccc(Cl)cc2)nc2[nH]ncc12
c: CCCCNc1nc2[nH]ncc2c(=O)s1
d: O=c1sc(NCc2ccccc2)nc2[nH]ncc12
In: Order the records so the highest pIC50 appears first and the lowest last. Provide the labels, sequenced as the question asks.
Out: d, b, a, c
